# procedure-text: NCI Yeast Anticancer Drug Screen. Data for the bub3 strain (AID 167)
# conditions-used: S. cerevisiae bub3 mutant strain, at 50.0 µM, stronger effect = higher value
The panel holds about 79,000 compounds, 15% with a hit somewhere; the sample as a whole holds those more often.
measured-property: growth inhibition (%)
Numbers only, in %.

Consider the following illustrative entries.
# compound, output-unit, growth inhibition
measured = [
    ("COC(=O)c1nc[nH]c1C(=O)OC", "%", -0.8),
    ("ClC[P+](c1ccccc1)(c1ccccc1)c1ccccc1", "%", 24.8),
    ("COc1ccc2c(c1)[n+]([O-])c(/C(C)=N/NC(N)=S)c(C)[n+]2[O-]", "%", 61),
    ("CCCCCCC(/C=N/Nc1ccccn1)=C\\c1ccccc1", "%", -4.1),
    ("O=C1C=CC2(CCC23C=CC(=O)O3)O1 (configuration not stated)", "%", 12.2),
    ("CCCC(=O)c1ccc(=O)n(C)c1", "%", 14.4),
    ("COC1(C)CNCC(C)(C)NC(=O)C(C)(OC)CNCC(C)(C)NC1=O (configuration not stated)", "%", -32.5),
    ("Cc1ccccc1NC(=O)c1ccc(C(=O)Nc2ccccc2C)cc1", "%", 1.05),
]

Hello, I would appreciate it if you could give growth inhibition for each entry below.
1. CC(=O)NCCC1CN(C(=O)/C=C/I)c2ccccc21 (configuration not stated)
2. CCC1=NS(=O)(=O)c2c(ncn2C)N1
3. Clc1cccc[n+]1CCc1ccccc1

1. 24.6
2. 0.15
3. 7.55

###

Would you kindly list growth inhibition for each of these compounds?
# procedure-text: NCI Yeast Anticancer Drug Screen. Data for the cln2 rad14 strain (AID 165);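 further: 0% = growth equal to vehicle treated cultures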
# conditions-used: S. cerevisiae cln2 rad14 strain, at 50.0 µM, stronger effect = higher value
Compounds without any hit were thinned out: in the full panel of roughly 79,000, 15% have a hit. The source made the active and inactive calls. Cut-off read from the data, not from the text of the source: active = growth inhibition above about 70%; inactive = the rest.

Solved entries:
# compound, result
rows = [
    ("CCOC(=O)N/N=C(\\CC)NO", "-7% (inactive)"),
    ("O=C(Nc1ccc(Br)cc1)Oc1ccc(Cl)cc1C(=O)c1ccccc1", "29.5% (inactive)"),
    ("CC(=O)OC[C@@]12CC[C@H]3C(C)(C)CCC[C@]3(C)[C@H]1C[C@@H](C1=CC(=O)O[C@H]1O)O2", "91.5% (active)"),
    ("O=C(C(=Cc1ccc(F)cc1)C(=O)c1ccccc1)c1ccccc1", "5.95% (inactive)"),
    ("COC(=O)C12CC3CC(CC(C(=O)O)(C3)C1)C2", "-3.2% (inactive)"),
]

# per-item lookup of growth inhibition; items listed below
1. COc1cccc(-n2cnc3c(SC)ncnc32)c1
2. CC(=O)c1ccccc1C(C)c1ccc(C)c2ccccc12 (stereo not drawn)
3. CS(=O)(=O)OCC(Cc1ccccc1)N1C(=O)c2ccccc2C1=O (stereo not drawn)
4. CN(O)C(=O)c1ccccc1
5. C=C(CC/C=C\CO)[Si](C)(C)C
6. Cc1c(C(C)C(=O)O)c2ccccc2n1C (stereo not drawn)

-27.9% (inactive)
-11.8% (inactive)
12.2% (inactive)
11.9% (inactive)
7.35% (inactive)
33.1% (inactive)

Batch: growth inhibition for all items listed.
1. CSc1nc(NC2OCC(O)C(O)C2O)cc(=O)[nH]1 (stereo not drawn)
2. CN1CCC(c2ccccc2)(c2ccccc2)C(O)C1 (stereo not drawn)
3. CN1CCN(C(=S)N(C(=O)c2ccc(Cl)cc2)C2CCCCC2)CC1
4. CC(=O)Nc1ccccc1Cc1nc2ccccc2c(=O)[nH]1
5. Cc1c(C(=O)O)c2ccccc2[nH]c1=O
6. Cc1ccccc1N1C(=O)/C(=C/c2ccc(N(CCC#N)CCC#N)cc2)N=C1c1cc([N+](=O)[O-])ccc1Cl
7. CSC(=O)Oc1ccc([N+](=O)[O-])cc1

-2.25% (inactive)
4.35% (inactive)
-26.4% (inactive)
7.9% (inactive)
-40% (inactive)
7.1% (inactive)
-38.3% (inactive)

# batch size: 5; output growth inhibition per entry
1. CNc1ccc(C(=O)NC(CCC(=O)O)C(=O)O)cc1I (stereo not drawn)
2. O=S1(=O)OCCOS(=O)(=O)C1S(=O)(=O)c1ccc2ccccc2c1
3. C=CC(Br)(CBr)CCC(Cl)C(C)C (stereo not drawn)
4. O=S(=O)(C/C=C/COc1ccccc1)c1ccc2ccccc2c1
5. CC(O)C(C)C(N)C(=O)O (stereo not drawn)

1: 0.15% (inactive); 2: 34.8% (inactive); 3: 91.7% (active); 4: 3.6% (inactive); 5: -0.85% (inactive)
